Taken from the supplement of paper PMC9170038.

# System: MS2 coat protein
# experiment.summary: apparent KD of MS2 coat protein; designed switch direction (-1 OFF switch, 1 ON switch): 1; higher = weaker reporter binding
# measurement.conditions: input ligand: microRNA oligo, concentration not stated
Label rule met when apparent KD of MS2 coat protein is at or above 70 nM; otherwise label rule not met.

Example entries and their recorded answers appear below.
* GCAGGACGGUAAAACAUCUCACAUGAGGAUCACCCAUGUCGUGAGGAUAUGGAUCCUAAUUGGAUCCAGAAGGCACGGUCCUGC [Fiskers NG3ss - 29] (Eterna round: R96, puzzle: Same State NG 3) | rule not met
* AGAUGUUAAUCAGGAUAUGGGCACAUGAGGAUCACCCAUGUAAAUUCGAUACUAUGUGGACACGUCUAGAAGGGAUGGCUAACA [SameState NG2 #83] (Eterna round: R96, puzzle: Same State NG 2) | rule met
* UGUUGUAUUACAGGAUAUCUAUGAUUUAUAUUUAGAGAAGGGUAUUCACAUGAGGAUCACCCAUGUAUAUACGAGGAAGUUGUG [JMF's solution 61] (Eterna round: R96, puzzle: Same State NG 1) | rule not met

// query Does the sequence GGUCCAUCAUGAGGAUAUGGCACCUUAUUGGUGCCAGAAGGCAUGUAAAUUAUAAUAAAUACAUGAGGAUCACCCAUGUGGACC [Eli NG1ss - 98] (Eterna round: R96, puzzle: Same State NG 1) have recorded apparent KD of MS2 coat protein that is 70 nM or more?
// result rule met

// query Does the sequence AUUAUUUAUGCAGGAUAUGAUUAACAUGAGGAUCACCCAUGUGGUGUUGUGAGUAAGGAGAGUGAUCAGAAGGGCAGUUUUUUU [JMF's solution 43] (Eterna round: R96, puzzle: Same State NG 2) have recorded apparent KD of MS2 coat protein that is 70 nM or more?
// result rule met

====

This section presents sequences with their documented apparent KD of MS2 coat protein values.
# Test system: MS2 coat protein
# experiment.summary: apparent KD of MS2 coat protein; higher = weaker reporter binding
# measurement.conditions: Eterna round: R107; input ligand: tryptophan 2.4 mM
Dear colleague, please return just the value in nM, with no unit written.

• ACAUGAGGAUCACCCAUGUUAUUUACCGAAGGAGCGGGUAUAUACCCAGGUAGGUCGCGGACAACAUGAGGAUCACCCACAUGAG [AstrosSSArgA#21] = 27.8
• AGCAGCUCGAAAGAGUUGCACUCAUGUGAAGGAGCGCGCGUUAGCGCAGGUAGGUCGCACAUGAGGAUCACCCAUGUACCUUCUA [MAT - Exclusion Arginine A - Mod of Eli - D15] = 108
• AAUCGGACUCGUACAGCAUGUUGAGCGGAAGGAGCGGCGAAAGAGCCAGGUAGGUCGCCGCCGACAUGAGGAUCACCCAUGUACG [Orenti] = 110
• GGGCAAGAGGGAAGGAGCGUCAGCUGAGUAACAUGAGGAUCACCCAUGUAGCACAUAGUGUGACAGGUAGGUCGCCCUCUGCCCU [SS-ArgB6] = 12.5
• ACAUGAGGAUCACCCAUGUAUGGCGCGGAAGGAGCGUGAUUAAGCACAGGUAGGUCGCUGCGUUGAUCGAGCGUUAGCUCGAUAA [SSArg A #9] = 22.3

Let's switch to this sequence now.
// query What value of measured apparent KD of MS2 coat protein is listed for AAAUAAAUAACUGAUACCAGUGUACUGACAUGAGGAUCACCCAUGUUGGGUUUUGUUGUACACCCUUGGCAGCAGAAAUAUAAAA [AstrosExyTheB#1] ?
// result 37.9
